assay_comment: Lipophilicity, log D of compound in PBS buffer at pH 7 at 200 uM incubated for 24 hrs in shaker by UPLC/DAD analysis
Assay type: physicochemical
Listed next: entries and their corresponding logD at 24 h, 200 µM.
experimental_readout: logD at 24 h, 200 µM

INSERT INTO measurements (structure_notation, observed_value) VALUES
  ('C[C@@H](NC(=O)c1ccc(F)cc1)c1ccc2c(n1)CCCN2C(=O)c1cccc(Cl)c1', 3.1),
  ('CCOC(=O)N1CCCc2nc([C@@H](C)NC(=O)c3ccc(F)cc3)ccc21', 2.7),
  ('C[C@@H](NC(=O)c1ccc(Cl)cc1)c1ccc2c(c1)OCCN2C(=O)c1cccc(Cl)c1', 3.6),
  ('C[C@H](NC(=O)c1ccc(Cl)cc1)c1ccc2c(c1)CCCN2C(=O)c1cccc(Cl)c1', 3.7),
  ('C[C@@H](NC(=O)c1ccc(F)cc1)c1ccc2c(n1)CCCN2c1ccnc(C#N)n1', 2.7),
  ('C[C@@H](NC(=O)c1ccc(F)cc1)c1ccc2c(n1)CCCN2c1cccnc1', 2.3),
  ('C[C@@H](NC(=O)c1ccc(F)cc1)c1ccc2c(n1)CCCN2C(=O)C1(C(F)(F)F)CC1', 2.9),
  ('COCCOC(=O)N1CCCc2nc([C@@H](C)NC(=O)c3ccc(F)cc3)ccc21', 2.3),
  ('C[C@@H](NC(=O)c1ccc(Cl)cc1)c1cc2c(cn1)N(C(=O)c1cccc(Cl)c1)CCC2', 3.3),
  ('C[C@@H](NC(=O)c1ccc(F)cc1)c1ccc2c(n1)CCCN2c1ncccn1', 2.4),
  ('Cc1cc(N2CCCc3nc([C@@H](C)NC(=O)c4ccc(F)cc4)ccc32)ccn1', 2),
  ('C[C@@H](NC(=O)c1ccc(F)cc1)c1ccc2c(n1)CCCN2C(=O)OC1CC1', 2.8),
  ('CC(C)CC(=O)N1CCCc2cc(CNC(=O)c3ccc(Cl)cc3)cnc21', 3),
  ('C[C@@H](NC(=O)c1ccc(F)cc1)c1ccc2c(n1)CCCN2C(=O)OCC(F)(F)F', 3),
  ('C[C@@H](NC(=O)c1ccc(F)cc1)c1ccc2c(n1)CCCN2C(=O)OC1COC1', 2),
  ('C[C@@H](NC(=O)c1ccc(F)cc1)c1ccc2c(n1)CCCN2c1ccccn1', 2.7),
  ('C[C@@H](NC(=O)c1ccc(F)cc1)c1ccc2c(n1)CCCN2c1ccncn1', 1.9),
  ('CCCNC(=O)C1(c2ccc(NC(=O)c3cccc(Cl)c3)cc2)CCC1', 3.2),
  ('C[C@@H](NC(=O)c1ccc(Cl)cc1)c1ccc2c(n1)CCCN2C(=O)c1cccc(Cl)c1', 3.4);
